Recorded IC50 by entry
- EXPERIMENTAL_TARGET: Pin1 (Homo sapiens)
- ASSAY_NAME: DELFIA displacement assay (displacement of biotinylated D-peptide from 6His-Pin1)
- Type: binding
- Parameters: human Pin1 (residues 1-163); made in house; host or cells: E. coli BL21 (DE3) gold pLysS
- STATED_CONDITIONS: Table 3; ± SD from duplicates
Where a SMILES comes first, the peptide text is derived from it. [ ]: non-standard residue; d: D form. The star is where a group is joined. Tyr(3-NO2) = N[C@@H](Cc1ccc(O)c([N+](=O)[O-])c1)C(=O)O; Phe(4-NO2) = N[C@@H](Cc1ccc([N+](=O)[O-])cc1)C(=O)O; pY = N[C@@H](Cc1ccc(OP(=O)(O)O)cc1)C(=O)O; Phe(4-F) = N[C@@H](Cc1ccc(F)cc1)C(=O)O; 4Pal = N[C@@H](Cc1ccncc1)C(=O)O; Pip = O=C(O)[C@@H]1CCCCN1; ClAc = O=C(CCl)*

// below: answered compounds
| COMPOUND | EXPERIMENTAL_TARGET | IC50 |
| --- | --- | --- |
| NC(=O)[C@H](Cc1c[nH]c2ccccc12)NC(=O)[C@@H]1CCCCN1C(=O)[C@H](Cc1ccc([N+](=O)[O-])cc1)NC(=O)CCl [158G2] (ClAc-[Phe(4-NO2)]-[Pip]-Trp-NH2) | Pin1 (Homo sapiens) | 0.134 µM |
| NC(=O)[C@H](Cc1c[nH]c2ccccc12)NC(=O)[C@@H]1CCCCN1C(=O)[C@H](Cc1ccc(F)cc1)NC(=O)CCl [158G11] (ClAc-[Phe(4-F)]-[Pip]-Trp-NH2) | Pin1 (Homo sapiens) | 0.146 µM |

// query IC50 value for entry NC(=O)[C@H](Cc1c[nH]c2ccccc12)NC(=O)[C@@H]1CCCCN1C(=O)[C@H](Cc1ccncc1)NC(=O)CCl [158H1] (ClAc-[4Pal]-[Pip]-Trp-NH2) 0.099 µM

// query IC50 value for entry NC(=O)[C@H](Cc1c[nH]c2ccccc12)NC(=O)[C@@H]1CCCCN1C(=O)[C@H](Cc1ccc(O)c([N+](=O)[O-])c1)NC(=O)CCl [158G10] (ClAc-[Tyr(3-NO2)]-[Pip]-Trp-NH2) 0.183 µM

// query IC50 value for entry NC(=O)[C@H](Cc1c[nH]c2ccccc12)NC(=O)[C@@H]1CCCCN1C(=O)[C@H](Cc1c[nH]c2ccccc12)NC(=O)CCl [158G9] (HELM PEPTIDE1{[O=C(CCl)[*:2]].W.[O=C([C@@H]1CCCCN1[*:1])[*:2]].W.[am]}$$$$V2.0) 0.044 µM

// query IC50 value for entry NC(=O)[C@H](Cc1c[nH]c2ccccc12)NC(=O)[C@@H]1CCCCN1C(=O)[C@H](Cc1ccc(OP(=O)(O)O)cc1)NC(=O)CCl [158E7] (ClAc-[pY]-[Pip]-Trp-NH2) 0.327 µM

----------
Recorded ΔTm (° C.) by entry
- EXPERIMENTAL_TARGET: Pin1 (Homo sapiens)
- ASSAY_NAME: Denaturation thermal shift assay (SYPRO Orange)
- Type: binding
- Design: human Pin1 (residues 1-163); made in house; host or cells: E. coli BL21 (DE3) gold pLysS
- STATED_CONDITIONS: Table 5; only one transition given
Where a SMILES comes first, the peptide text is derived from it. [ ]: non-standard residue; d: D form. The star is where a group is joined. Phe(4-Cl) = N[C@@H](Cc1ccc(Cl)cc1)C(=O)O; Pip = O=C(O)[C@@H]1CCCCN1; ClAc = O=C(CCl)*
Just the number in °C, nothing appended.

| COMPOUND | VALUE_UNIT | ENDPOINT_VALUE |
| --- | --- | --- |
| O=C(CCl)N[C@@H](Cc1c[nH]c2ccccc12)C(=O)N1CCCC[C@H]1C(=O)NCCc1c[nH]c2cc(Cl)cc(Cl)c12 | °C | −13.68 |

// query ΔTm (° C.) value for entry NC(=O)[C@H](Cc1c[nH]c2ccccc12)NC(=O)[C@@H]1CCCCN1C(=O)[C@H](Cc1ccc(Cl)cc1)NC(=O)CCl [158G12] (ClAc-[Phe(4-Cl)]-[Pip]-Trp-NH2) −12.19

----------
Recorded IC50 by entry
- EXPERIMENTAL_TARGET: Pin1 (Homo sapiens, UniProt Q13526)
- Sequence (Q13526 whole entry): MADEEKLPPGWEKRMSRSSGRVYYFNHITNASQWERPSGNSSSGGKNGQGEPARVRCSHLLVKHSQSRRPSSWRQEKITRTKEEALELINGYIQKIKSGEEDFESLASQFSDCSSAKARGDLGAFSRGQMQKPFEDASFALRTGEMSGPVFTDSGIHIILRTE
- ASSAY_NAME: DELFIA displacement assay (displacement of biotinylated D-peptide from 6His-Pin1)
- Format: binding
- Parameters: human Pin1 (residues 1-163); made in house; host or cells: E. coli BL21 (DE3) gold pLysS
- STATED_CONDITIONS: Table 4; ± SD from duplicates
Where a SMILES comes first, the peptide text is derived from it. [ ]: non-standard residue; d: D form. The star is where a group is joined. Trp(6-Cl) = N[C@@H](Cc1c[nH]c2cc(Cl)ccc12)C(=O)O; Trp(5-OH) = N[C@@H](Cc1c[nH]c2ccc(O)cc12)C(=O)O; Trp(5-F) = N[C@@H](Cc1c[nH]c2ccc(F)cc12)C(=O)O; Pip = O=C(O)[C@@H]1CCCCN1; ClAc = O=C(CCl)*
Answer shape: numeric part, then the unit.

| COMPOUND | ENDPOINT_VALUE |
| --- | --- |
| NC(=O)[C@H](Cc1c[nH]c2cc(Cl)ccc12)NC(=O)[C@@H]1CCCCN1C(=O)[C@H](Cc1c[nH]c2ccccc12)NC(=O)CCl [158H12] (ClAc-Trp-[Pip]-[Trp(6-Cl)]-NH2) | 31 nM |

// query IC50 value for entry NC(=O)[C@H](Cc1c[nH]c2ccccc12)NC(=O)[C@@H]1CCCCN1C(=O)[C@H](Cc1c[nH]c2ccc(F)cc12)NC(=O)CCl [158H8] (ClAc-[Trp(5-F)]-[Pip]-Trp-NH2) 43.5 nM

// query IC50 value for entry NC(=O)[C@H](Cc1c[nH]c2ccccc12)NC(=O)[C@@H]1C[C@H]2CCCC[C@@H]2N1C(=O)[C@@H]1Cc2c([nH]c3ccccc23)CN1C(=O)CCl [164A4] 35 nM

// query IC50 value for entry NC(=O)[C@H](Cc1c[nH]c2ccccc12)NC(=O)[C@@H]1CCCCN1C(=O)[C@H](Cc1c[nH]c2ccc(O)cc12)NC(=O)CCl [158H3] (ClAc-[Trp(5-OH)]-[Pip]-Trp-NH2) 56 nM

----------
- EXPERIMENTAL_TARGET: Pin1 (Homo sapiens, UniProt Q13526)
- ASSAY_NAME: DELFIA displacement assay (displacement of biotinylated D-peptide from 6His-Pin1)
- Assay type: binding
- Parameters: human Pin1 (residues 1-163); made in house; host or cells: E. coli BL21 (DE3) gold pLysS
- STATED_CONDITIONS: Table 3; ± SD from duplicates
Where a SMILES comes first, the peptide text is derived from it. [ ]: non-standard residue; d: D form. The star is where a group is joined. Trp(5-OMe) = COc1ccc2[nH]cc(C[C@H](N)C(=O)O)c2c1; Phe(4-CN) = N#Cc1ccc(C[C@H](N)C(=O)O)cc1; Phe(4-Cl) = N[C@@H](Cc1ccc(Cl)cc1)C(=O)O; mTyr = N[C@@H](Cc1cccc(O)c1)C(=O)O; Pip = O=C(O)[C@@H]1CCCCN1; ClAc = O=C(CCl)*
VALUE_TYPE: pIC50
Entry type: numeric. Quantity: pIC50, the -log10 of concentration in molar units.

| COMPOUND | pIC50 |
| --- | --- |
| NC(=O)[C@H](Cc1c[nH]c2ccccc12)NC(=O)[C@@H]1CCCCN1C(=O)[C@H](Cc1ccc(Cl)cc1)NC(=O)CCl [158G12] (ClAc-[Phe(4-Cl)]-[Pip]-Trp-NH2) | 6.28 |
| NC(=O)[C@H](Cc1c[nH]c2ccccc12)NC(=O)[C@@H]1CCCCN1C(=O)[C@H](Cc1cccc(O)c1)NC(=O)CCl [158D9] (ClAc-[mTyr]-[Pip]-Trp-NH2) | 7.47 |
| COc1ccc2[nH]cc(C[C@H](NC(=O)[C@@H]3CCCCN3C(=O)[C@H](Cc3ccccc3)NC(=O)CCl)C(N)=O)c2c1 [158F10] (ClAc-Phe-[Pip]-[Trp(5-OMe)]-NH2) | 6.90 |
| N#Cc1ccc(C[C@H](NC(=O)CCl)C(=O)N2CCCC[C@H]2C(=O)N[C@@H](Cc2c[nH]c3ccccc23)C(N)=O)cc1 [158G4] (ClAc-[Phe(4-CN)]-[Pip]-Trp-NH2) | 6.93 |

Turning now to a further record.
// query pIC50 value for entry COc1ccc(C[C@H](NC(=O)CCl)C(=O)N2CCCC[C@H]2C(=O)N[C@@H](Cc2c[nH]c3ccccc23)C(N)=O)cc1 [158H5] (ClAc-Tyr(Me)-[Pip]-Trp-NH2) 7.08
